- System: T1, TGFβ3 (R&D Systems) (Homo sapiens (Human), UniProt P10600 301-412, Active TGFβ3 is a disulfide-linked homodimer of this chain; one copy is given.)
- T1 construct: also called TGFB3
- T1 sequence: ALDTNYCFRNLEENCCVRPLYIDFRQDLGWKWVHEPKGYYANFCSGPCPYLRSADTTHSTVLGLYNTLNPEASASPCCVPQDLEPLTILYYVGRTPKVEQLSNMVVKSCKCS
- Experiment summary: SPR full titration
Label Condition met when Kd is strictly below 0.8 nM; otherwise label Condition not met.

Reference set (4 entries):
Lab log: compare recorded Kd with 0.8 nM; is it strictly lower for affinity matured HcLb 267 (antibody, V domains shown, full IgG; constant regions not restated) VH: EVQLVQSGAEVKKPGASVKVSCKTSGYIFMKYWMNWVRQAPGAGLDWMGQIFPAWGSTNYNEMFEGRVTLTADTSTSTAYMELSSLRAGDIAVYYCARGYGNYALDAMDYWGQGTLVTVSS VL: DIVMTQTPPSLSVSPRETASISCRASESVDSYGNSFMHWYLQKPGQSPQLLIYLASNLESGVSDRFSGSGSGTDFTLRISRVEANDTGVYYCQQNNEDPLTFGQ ?
Condition not met

Strictly below 0.8 nM in Kd? affinity matured HcLb 257 (antibody, V domains shown, full IgG; also called canHcLb/55SW/100DY/30IM/31TK + canHcLb/237ND/242TS) VH: EVQLVQSGAEVKKPGASVKVSCKTSGYTFMKYWMNWVRQAPGAGLDWMGQIFPAWGSTNYNEMFEGRVTLTADTSTSTAYMELSSLRAGDIAVYYCARGYGNYALDAMDYWGQGTLVTVSS VL: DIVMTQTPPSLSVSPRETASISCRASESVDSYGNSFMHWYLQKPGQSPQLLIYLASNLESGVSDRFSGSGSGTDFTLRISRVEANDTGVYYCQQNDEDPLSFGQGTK
Condition met

A record lists affinity matured HcLb 265 (antibody, V domains shown, full IgG; also called canHcLb/55SW/100DY/30IM/31TK/57SM + canHcLb/237ND/242TS) VH: EVQLVQSGAEVKKPGASVKVSCKTSGYTFMKYWMNWVRQAPGAGLDWMGQIFPAWGMTNYNEMFEGRVTLTADTSTSTAYMELSSLRAGDIAVYYCARGYGNYALDAMDYWGQGTLVTVSS VL: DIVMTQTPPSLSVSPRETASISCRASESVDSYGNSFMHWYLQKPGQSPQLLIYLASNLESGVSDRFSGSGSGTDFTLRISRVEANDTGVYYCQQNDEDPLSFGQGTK . Is its Kd below 0.8 nM?
Condition met

Identify whether the binder affinity matured HcLb 258 (antibody, V domains shown, full IgG; constant regions not restated) VH: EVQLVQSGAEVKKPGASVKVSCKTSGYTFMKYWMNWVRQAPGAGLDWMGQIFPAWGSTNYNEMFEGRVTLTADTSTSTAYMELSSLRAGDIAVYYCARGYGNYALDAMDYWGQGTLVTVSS VL: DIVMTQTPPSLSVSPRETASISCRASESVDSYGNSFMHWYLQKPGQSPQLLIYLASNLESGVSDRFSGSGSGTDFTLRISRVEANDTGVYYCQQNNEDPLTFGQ records Kd below 0.8 nM.
Condition not met

Now consider a different binder.
Record affinity matured HcLb 268 (antibody, V domains shown, full IgG; constant regions not restated) VH: EVQLVQSGAEVKKPGASVKVSCKTSGYIFMKYWMNWVRQAPGAGLDWMGQIFPAWGMTNYNEMFEGRVTLTADTSTSTAYMELSSLRAGDIAVYYCARGYGNYALDAMDYWGQGTLVTVSS VL: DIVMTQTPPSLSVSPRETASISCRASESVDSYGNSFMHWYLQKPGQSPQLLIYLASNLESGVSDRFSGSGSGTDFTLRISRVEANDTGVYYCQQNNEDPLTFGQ : is its Kd strictly below 0.8 nM?
Condition not met
